Values compiled from paper PMC8049018.

- Experimental Details: Proteolytic stability assay in human plasma
- Type: in vitro ADME
- Condition Details: human plasma (citrate-anticoagulated); human plasma (citrate 10 mM, pH 7.0), 37 °C, peptide 200–500 μg/mL, TCA stop, intact peptide by C18 RP-HPLC (214 nm) peak area, MALDI-MS verified, three independent incubations; read-out: t1/2 in human blood plasma (converted)
Bridge positions count the residues as written; N and C are the ends. Peptide text beside a SMILES is read from it.

{"Compound": "CSCC[C@@H]1NC(=O)[C@H](CC(C)C)NC(=O)CNC(=O)CNC(=O)[C@H](CO)NC(=O)CNC(=O)CNC(=O)[C@@H](N)CSSC[C@@H](C(=O)O)NC(=O)CNC(=O)CNC(=O)[C@H](CO)NC(=O)CNC(=O)CNC(=O)[C@@H]2CCCN2C(=O)[C@H](CCC(=O)O)NC(=O)[C@H](CO)NC(=O)[C@H](CO)NC(=O)CNC(=O)CNC(=O)[C@H](Cc2ccccc2)NC(=O)[C@H](C)NC1=O [MIF(cyclo10)] (H-CGGSGGLMAFGGSSEPGGSGGC-OH; disulfide 1-22)", "half-life": "> 8 h"}

====

- Experimental Details: Proteolytic stability assay in human plasma
- Type: in vitro ADME
- Condition Details: human plasma (citrate-anticoagulated); human plasma (citrate 10 mM, pH 7.0), 37 °C, peptide 200–500 μg/mL, TCA stop, intact peptide by C18 RP-HPLC (214 nm) peak area, MALDI-MS verified, three independent incubations; read-out: t1/2 in human blood plasma (converted)
Measurement Type: half-life

{"Substance": "Ac-LMAFGGSSEP-NH2 [MIF(47–56)]", "Result": "~30 min"}
